Recorded measurements of binding signal, one per entry
- TARGET_SYSTEM: T1, UNK ZnF1-3 (human, UniProt Q9C0B0 31-174)
- T1 sequence: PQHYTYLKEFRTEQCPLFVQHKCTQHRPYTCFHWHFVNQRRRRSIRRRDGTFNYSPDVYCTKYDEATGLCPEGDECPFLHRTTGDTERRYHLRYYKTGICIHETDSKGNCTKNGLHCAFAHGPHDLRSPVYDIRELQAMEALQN
- METHOD_NOTES: nsRBNS (natural sequence RNA bind-n-seq); RBNS binding buffer (assumed for nsRBNS): 25 mM Tris pH 7.5, 150 mM KCl, 3 mM MgCl2, 0.01% Triton X-100, 500 ug/ml BSA, 20 U/ml SUPERase-In, 4 C; UNK is unkempt and MSI1 is Musashi-1; names of the RNAs are library labels; protein concentration not given here; high values mean tight binding
In all, about 24,000 sequences were measured (“enrichment r”: median about 0.99, highest 2% from about 3.7 on). Only a selection was taken, and the highest values are over-represented in it overall.
MEASURED_ATTRIBUTE: binding signal (enrichment R)

>>> numeric_readout("chr22:19452774:19452775:-_ENSG00000070010_ENST00000399523|hu_hu|hu_hu_hu_mus_False|88_108 (ssRNA) RNA: GGGAGUUCUACAGUCCGACGAUCCUUUUCAUUAUAGUUGAUAGCAAUCACAUCCCCAGUCGUCAGACAGGCGAAGUUUCUCAAUGCAUUUUCUAAUACCGCUUUAGGGUUGGUAAUAUCCAGGAAGUCUGGGCUCUGAGGCUGCAACAGAGGAUUGAGCAUCA")
0.864
>>> numeric_readout("chr13:51246309:51246310:+_ENSMUSG00000021395_ENSMUST00000095797|mus_hu|FALSE|FALSE (ssRNA) RNA: GGGAGUUCUACAGUCCGACGAUCCCCACAGUGAAGCACGAGGGACAGAGCGACUGCAGCUGUGGACAGAAAACUGAGGUACUGUGUUUACAUGGUGAGUGGUCGUUACCAUCCAACAGCACAAGGCACAAAAAAUGGGCAUCACAACAGAGGAUUGAGCAUCA")
1.39
